- Test system: colorectal tissue transcripts
- run description: SAGE of normal, adenoma and cancer colorectal tissue (transcript tag counts)
- Set-up: species or system human
- test parameters: SAGE library NC2
The recorded NC2 (SAGE tag count) of each item maps onto one of these classes: Low: < 20; Medium: ≥ 20 and < 40; High: ≥ 40

sequence_content="ATGGTGGGGG (chemistry not fully specified)" label_class=Medium
sequence_content="GCAAGAAAGT (chemistry not fully specified)" label_class=Low
sequence_content="GCTGTGCCTG (chemistry not fully specified)" label_class=High
sequence_content="ATGTGCGTGG (chemistry not fully specified)" label_class=Low
sequence_content="GCCGACCAGG (chemistry not fully specified)" label_class=High
sequence_content="CCCTCCCGAA (chemistry not fully specified)" label_class=High
sequence_content="GCGAAACCCT (chemistry not fully specified)" label_class=High
sequence_content="CCAAAGCTAT (chemistry not fully specified)" label_class=Low
sequence_content="AATGAGAAGG (chemistry not fully specified)" label_class=Low
sequence_content="AACGTGCAGG (chemistry not fully specified)" label_class=Medium

Ref: patent US8029764B2
